RUN_DESCRIPTION: self-splicing fitness, log relative to wild type (ln ratio); higher = more splicing; Tetrahymena group I intron in knt gene, E. coli kanamycin selection, DiMSum; sequences stand for … in CUCUCU…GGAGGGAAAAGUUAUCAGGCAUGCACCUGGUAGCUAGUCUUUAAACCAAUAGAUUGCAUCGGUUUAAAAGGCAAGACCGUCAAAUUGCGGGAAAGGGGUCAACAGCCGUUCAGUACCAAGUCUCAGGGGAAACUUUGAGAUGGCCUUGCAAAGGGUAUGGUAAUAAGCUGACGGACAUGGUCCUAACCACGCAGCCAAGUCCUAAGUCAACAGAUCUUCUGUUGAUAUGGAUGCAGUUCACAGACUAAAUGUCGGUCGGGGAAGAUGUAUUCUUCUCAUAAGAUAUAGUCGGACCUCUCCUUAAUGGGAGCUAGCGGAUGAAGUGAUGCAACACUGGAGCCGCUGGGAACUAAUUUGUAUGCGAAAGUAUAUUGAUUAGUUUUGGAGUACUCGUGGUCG;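 note: selection with 25 µg/mL kanamycin versus none on LB agar overnight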
ASSAY_CONDITIONS: 30 °C
Would you mind labelling by self-splicing fitness (ln)? At or over -3 is y, under is n.

SEQUENCE_DATA: GACCAGCAAUAUUACGGUGA
ASSIGNED_LABEL: y

SEQUENCE_DATA: UUUUAGCAAUAUUACGCAGG
ASSIGNED_LABEL: y

SEQUENCE_DATA: UGCAAGCAAUAUUACGCCUG
ASSIGNED_LABEL: y

SEQUENCE_DATA: GUACAGCAAUAUUACGUUUA
ASSIGNED_LABEL: y

SEQUENCE_DATA: GCGUAGCAAUAUUACGGCCG
ASSIGNED_LABEL: y

Input line: Determine whether measured self-splicing fitness (ln) meets or exceeds -3 for CGAUAGCAAUAUUACGUGAC
Output line: y

Input line: Determine whether measured self-splicing fitness (ln) meets or exceeds -3 for CCCGAGCAAUAUUACGAUGC
Output line: n

Input line: Determine whether measured self-splicing fitness (ln) meets or exceeds -3 for GAGGAGCAAUAUUACGAGAU
Output line: y
